- Tested on: Staphylococcus aureus
- test_description: Antibacterial activity against Staphylococcus aureus
- Type: functional
Label true (1) when MIC < 40 µg/mL; otherwise false (0).

**Query** Just wondering, is MIC of CCOC(=O)C1=C(C)NC(=S)NC1c1ccc(NC(=O)Nc2ccc(C(C)C)cc2)cc1 (stereo not given) below 40 µg/mL?
**Result** false (0)

**Query** Field entry: CCOC(=O)C1=C(C)NC(=S)NC1c1ccc(NC(=O)Nc2cc(F)cc(F)c2)cc1 (stereo not given)
**Result** false (0)

**Query** Try this compound next: CCOC(=O)C1=C(C)NC(=S)NC1c1ccc(NC(=O)Nc2ccccc2F)cc1 (stereo not given)
**Result** true (1)

**Query** What do you have for CCOC(=O)C1=C(C)NC(=S)NC1c1ccc(NC(=O)Nc2ccccc2OC(F)(F)F)cc1 (stereo not given) ?
**Result** true (1)

* * *

- Test system: Candida albicans
- test_description: Antifungal activity against Candida albicans
- Format: functional
Returns: string. Value is Fulfilled if measured MIC is below 20 µg/mL, and Not fulfilled if it is greater than or equal to it.

**Query** A record lists CCOC(=O)C1=C(C)NC(=S)NC1c1ccc(NC(=O)Nc2ccccc2Cl)cc1 (stereo not given) . Is its MIC below 20 µg/mL?
**Result** Fulfilled

**Query** Would you mind doing CCOC(=O)C1=C(C)NC(=S)NC1c1ccc(NC(=O)Nc2c(C)cccc2F)cc1 (stereo not given) as well?
**Result** Not fulfilled

**Query** What about this molecule? CCOC(=O)C1=C(C)NC(=S)NC1c1ccc(NC(=O)Nc2ccc(C(F)(F)F)cc2Cl)cc1 (stereo not given)
**Result** Not fulfilled

**Query** Proceed to CCOC(=O)C1=C(C)NC(=S)NC1c1ccc(NC(=O)Nc2cccc(C(F)(F)F)c2)cc1 (stereo not given)
**Result** Not fulfilled

**Query** Now this one: CCOC(=O)C1=C(C)NC(=S)NC1c1ccc(NC(=O)Nc2ccc(F)c(Cl)c2)cc1 (stereo not given)
**Result** Not fulfilled

* * *

Assign MIC to each entry below.
- Test system: Salmonella typhimurium
- test_description: Antibacterial activity against Salmonella Typhimurium
- Assay type: functional, Salmonella enterica subsp. enterica serovar Typhimurium
- test_settings: Salmonella enterica
Kindly report the value followed by its unit.

**Query** # MIC lookup, item CCOC(=O)C1=C(C)NC(=S)NC1c1ccc(NC(=O)Nc2c(Cl)cccc2C(F)(F)F)cc1 (stereo not given)
**Result** 90 µg/mL

**Query** Also CCOC(=O)C1=C(C)NC(=S)NC1c1ccc(NC(=O)Nc2ccc(C(F)(F)F)cc2)cc1 (stereo not given) ?
**Result** 30 µg/mL

**Query** What do you get for CCOC(=O)C1=C(C)NC(=S)NC1c1ccc(NC(=O)Nc2ccc(C(F)(F)F)cc2Cl)cc1 (stereo not given) ?
**Result** 55 µg/mL

**Query** Next entry: CCOC(=O)C1=C(C)NC(=S)NC1c1ccc(NC(=O)Nc2ccccc2C(F)(F)F)cc1 (stereo not given)
**Result** 30 µg/mL

**Query** Continue with CCOC(=O)C1=C(C)NC(=S)NC1c1ccc([N+](=O)[O-])cc1 (stereo not given)
**Result** 50 µg/mL

**Query** CCOC(=O)C1=C(C)NC(=S)NC1c1ccc(NC(=O)Nc2ccccc2Cl)cc1 (stereo not given) , same question.
**Result** 40 µg/mL

**Query** Continue with CCOC(=O)C1=C(C)NC(=S)NC1c1ccc(NC(=O)Nc2ccc(OC)cc2)cc1 (stereo not given)
**Result** 45 µg/mL

**Query** Another: CCOC(=O)C1=C(C)NC(=S)NC1c1ccc(NC(=O)Nc2cc(C(F)(F)F)ccc2Cl)cc1 (stereo not given)
**Result** 90 µg/mL

**Query** Same for CCOC(=O)C1=C(C)NC(=S)NC1c1ccc(NC(=O)Nc2c(C)cccc2Cl)cc1 (stereo not given)
**Result** 80 µg/mL

**Query** Now consider CCOC(=O)C1=C(C)NC(=S)NC1c1ccc(NC(=O)Nc2c(C)cccc2F)cc1 (stereo not given) and answer again.
**Result** 30 µg/mL

**Query** Next: CCOC(=O)C1=C(C)NC(=S)NC1c1ccc(NC(=O)Nc2ccc(C(C)C)cc2)cc1 (stereo not given)
**Result** 95 µg/mL

**Query** Same lookup for "O=C(O)c1cn(C2CC2)c2cc(N3CCNCC3)c(F)cc2c1=O" , please.
**Result** 25 µg/mL

**Query** # iterate: CCOC(=O)C1=C(C)NC(=S)NC1c1ccc(NC(=O)Nc2ccccc2OC(F)(F)F)cc1 (stereo not given)
**Result** 20 µg/mL

**Query** What about this compound? CCOC(=O)C1=C(C)NC(=S)NC1c1ccc(N)cc1 (stereo not given)
**Result** 60 µg/mL

**Query** Same for CCOC(=O)C1=C(C)NC(=S)NC1c1ccc(NC(=O)Nc2c(F)cccc2C(F)(F)F)cc1 (stereo not given)
**Result** 60 µg/mL

**Query** Likewise for CCOC(=O)C1=C(C)NC(=S)NC1c1ccc(NC(=O)Nc2ccc(F)c(C)c2)cc1 (stereo not given) ?
**Result** 90 µg/mL

**Query** Param item: CCOC(=O)C1=C(C)NC(=S)NC1c1ccc(NC(=O)Nc2ccccc2Oc2ccccc2)cc1 (stereo not given)
**Result** 40 µg/mL

**Query** Same again, this time with CCOC(=O)C1=C(C)NC(=S)NC1c1ccc(NC(=O)Nc2c(F)cccc2Cl)cc1 (stereo not given)
**Result** 85 µg/mL

**Query** Try CCOC(=O)C1=C(C)NC(=S)NC1c1ccc(NC(=O)Nc2ccccc2F)cc1 (stereo not given) next.
**Result** 40 µg/mL

**Query** Entry to check: CCOC(=O)C1=C(C)NC(=S)NC1c1ccc(NC(=O)Nc2cccc(C(F)(F)F)c2)cc1 (stereo not given)
**Result** 40 µg/mL
